test: Half life in mouse liver microsomes in presence of NADPH; format: ADME, Microsome
Measure: half-life (min)

A: CC(C)(C)OC(=O)Nc1ccc(-c2cc(C(=O)NCCc3cc(C(=O)NO)no3)no2)cc1
B: O=C(NCCc1cc(C(=O)NO)no1)c1ccc(Cl)c(Cl)c1
Quick check, higher half-life between A and B ? Pick one and reply with its label.
B

====

biological target: Histone deacetylase 4 (Homo sapiens, UniProt P56524); test: Inhibition of recombinant human HDAC4 expressed in HEK293T/17 cells using Boc-Lys(TFA)-AMC as substrate preincubated for 10 mins followed by substrate addition and measured after 30 mins by fluorescence-based assay
Sequence (P56524 whole entry): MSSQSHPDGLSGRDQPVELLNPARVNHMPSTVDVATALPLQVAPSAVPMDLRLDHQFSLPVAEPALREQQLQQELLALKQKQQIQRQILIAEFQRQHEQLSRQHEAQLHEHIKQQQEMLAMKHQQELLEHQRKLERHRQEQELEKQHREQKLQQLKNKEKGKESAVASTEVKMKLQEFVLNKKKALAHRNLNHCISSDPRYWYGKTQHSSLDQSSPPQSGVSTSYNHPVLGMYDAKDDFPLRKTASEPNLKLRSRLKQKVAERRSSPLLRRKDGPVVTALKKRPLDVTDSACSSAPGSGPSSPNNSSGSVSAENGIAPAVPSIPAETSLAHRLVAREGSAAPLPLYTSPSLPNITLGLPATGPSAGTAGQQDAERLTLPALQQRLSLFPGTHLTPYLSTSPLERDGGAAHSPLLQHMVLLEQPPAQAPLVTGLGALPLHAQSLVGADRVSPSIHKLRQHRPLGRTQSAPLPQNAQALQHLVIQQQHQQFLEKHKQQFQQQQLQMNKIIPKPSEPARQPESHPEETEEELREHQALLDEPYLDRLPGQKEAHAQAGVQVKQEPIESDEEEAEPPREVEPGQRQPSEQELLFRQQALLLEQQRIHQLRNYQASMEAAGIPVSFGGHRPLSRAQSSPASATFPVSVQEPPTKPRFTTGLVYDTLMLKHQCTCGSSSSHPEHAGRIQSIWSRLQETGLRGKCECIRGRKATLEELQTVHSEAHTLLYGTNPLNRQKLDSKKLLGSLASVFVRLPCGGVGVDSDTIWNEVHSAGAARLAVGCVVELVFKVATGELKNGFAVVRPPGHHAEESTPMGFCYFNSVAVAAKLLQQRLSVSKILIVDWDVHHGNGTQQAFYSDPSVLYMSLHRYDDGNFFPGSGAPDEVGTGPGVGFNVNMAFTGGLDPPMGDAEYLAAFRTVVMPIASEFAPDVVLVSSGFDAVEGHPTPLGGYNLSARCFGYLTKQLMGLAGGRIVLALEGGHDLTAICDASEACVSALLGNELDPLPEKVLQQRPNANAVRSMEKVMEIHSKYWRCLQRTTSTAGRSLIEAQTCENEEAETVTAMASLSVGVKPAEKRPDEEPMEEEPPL
Measure: pIC50
Please keep in mind that pIC50 is minus log10 of the molar concentration; only the number is needed.

Would you kindly share the measured pIC50 for "O=C(NO)c1ccc(CNC(=O)c2ccc(Cl)c(Cl)c2)cc1" ?
5.45

====

biological target: Protein deacetylase HDAC6 (Homo sapiens, UniProt Q9UBN7); test: Inhibition of human recombinant HDAC6 using fluorogenic substrate incubated for 30 mins by fluorescence assay
Measure: pIC50
Please keep in mind that pIC50 is minus log10 of the molar concentration; only the number is needed.

Would you kindly share the measured pIC50 for "O=C(NO)c1ccc(CNCc2csc3ccccc23)cc1" ?
7.85

====

target: Histone deacetylase 1 (Homo sapiens, UniProt Q13547); assay: Inhibition of recombinant full length C-terminal His/FLAG tagged human HDAC1 (1 to 482 residues) expressed in baculovirus infected sf9 insect cells using p53 (379 to 382 residues) derived fluorogenic peptide RHKKAc as substrate preincubated for 5 to 10 mins followed by substrate addition and further incubated for 2 hrs by fluorescence assay
Sequence (Q13547 whole entry, the tested form may be a part): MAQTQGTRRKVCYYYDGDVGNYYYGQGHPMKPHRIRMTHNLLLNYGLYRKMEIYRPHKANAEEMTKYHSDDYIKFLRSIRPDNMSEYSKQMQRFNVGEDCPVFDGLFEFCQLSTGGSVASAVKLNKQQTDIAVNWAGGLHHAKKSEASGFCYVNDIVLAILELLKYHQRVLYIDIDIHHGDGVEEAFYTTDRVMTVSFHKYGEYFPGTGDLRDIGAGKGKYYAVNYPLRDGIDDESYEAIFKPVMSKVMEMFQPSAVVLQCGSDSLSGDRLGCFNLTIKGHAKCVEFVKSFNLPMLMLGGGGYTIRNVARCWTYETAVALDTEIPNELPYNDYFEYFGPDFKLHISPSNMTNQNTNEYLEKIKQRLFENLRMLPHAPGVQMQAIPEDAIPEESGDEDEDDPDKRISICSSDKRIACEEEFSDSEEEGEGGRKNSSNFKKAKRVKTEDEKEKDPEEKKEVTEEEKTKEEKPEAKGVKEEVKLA
pIC50: −log10 of the molar value.
Measure: pIC50

Would you kindly share the measured pIC50 for "CC(C)(C)OC(=O)Nc1ccc(-c2cc(C(=O)NCCCCCCC(=O)NO)no2)cc1" ?
8.49

What do you get for "O=C(NO)c1cc(CCCCn2ccc3cc(Cl)c(Cl)cc32)on1" ?
< 4.52

====

biological target: Histone deacetylase 1 (Homo sapiens, UniProt Q13547); assay: Inhibition of human recombinant HDAC1 using fluorogenic substrate incubated for 15 mins by fluorescence assay
Measure: pIC50
Please keep in mind that pIC50 is minus log10 of the molar concentration; only the number is needed.

Would you kindly share the measured pIC50 for "O=C(NO)c1ccc(CNCc2csc3ccccc23)cc1" ?
5.12

====

Molecular target: Protein deacetylase HDAC6 (Homo sapiens, UniProt Q9UBN7)
Sequence (Q9UBN7 whole entry): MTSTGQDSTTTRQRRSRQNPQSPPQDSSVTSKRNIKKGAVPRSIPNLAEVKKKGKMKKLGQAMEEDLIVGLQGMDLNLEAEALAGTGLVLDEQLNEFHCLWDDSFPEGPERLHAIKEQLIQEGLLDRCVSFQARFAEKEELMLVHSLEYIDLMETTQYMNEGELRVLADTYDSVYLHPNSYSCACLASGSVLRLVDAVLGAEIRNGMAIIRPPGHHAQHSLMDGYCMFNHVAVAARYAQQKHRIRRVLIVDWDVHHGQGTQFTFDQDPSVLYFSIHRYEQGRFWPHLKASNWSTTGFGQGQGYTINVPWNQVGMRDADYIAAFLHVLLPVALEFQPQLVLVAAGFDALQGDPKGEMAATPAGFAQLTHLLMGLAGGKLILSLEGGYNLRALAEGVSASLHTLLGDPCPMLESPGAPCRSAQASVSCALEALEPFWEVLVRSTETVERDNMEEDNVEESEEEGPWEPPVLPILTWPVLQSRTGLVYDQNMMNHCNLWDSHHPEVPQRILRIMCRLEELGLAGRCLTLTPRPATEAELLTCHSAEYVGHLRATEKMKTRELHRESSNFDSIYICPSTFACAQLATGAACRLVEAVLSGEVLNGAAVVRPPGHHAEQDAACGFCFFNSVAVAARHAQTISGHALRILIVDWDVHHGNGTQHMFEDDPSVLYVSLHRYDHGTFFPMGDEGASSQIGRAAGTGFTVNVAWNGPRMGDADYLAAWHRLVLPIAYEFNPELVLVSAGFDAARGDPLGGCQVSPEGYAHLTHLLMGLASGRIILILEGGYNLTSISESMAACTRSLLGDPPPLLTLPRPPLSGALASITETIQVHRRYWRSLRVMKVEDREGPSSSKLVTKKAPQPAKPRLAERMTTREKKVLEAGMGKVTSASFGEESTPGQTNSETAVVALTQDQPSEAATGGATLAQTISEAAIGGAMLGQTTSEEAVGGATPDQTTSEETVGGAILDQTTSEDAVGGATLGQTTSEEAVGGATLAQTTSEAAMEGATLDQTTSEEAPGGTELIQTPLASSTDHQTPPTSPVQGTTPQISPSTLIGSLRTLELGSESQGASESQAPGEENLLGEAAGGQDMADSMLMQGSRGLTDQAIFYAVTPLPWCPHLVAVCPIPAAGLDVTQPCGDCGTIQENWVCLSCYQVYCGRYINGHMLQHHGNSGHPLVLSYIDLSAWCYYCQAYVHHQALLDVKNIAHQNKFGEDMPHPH
Assay: Inhibition of recombinant N-terminal GST-tagged human HDAC6 (1 to 1215 residues) expressed in baculovirus infected sf9 insect cells using p53 (379 to 382 residues) derived fluorogenic peptide RHKKAc as substrate preincubated for 5 to 10 mins followed by substrate addition and further incubated for 2 hrs by fluorescence assay
Measure: IC50 (nM)

P: O=C(NO)c1cc(CCCCN2CCCc3cc(Cl)ccc32)on1
Q: O=C(NO)c1cc(CCCCn2ccc3cc(Cl)c(Cl)cc32)on1
Quick check, higher IC50 between P and Q ? Pick one and reply with its label.
Q

====

target: Histone deacetylase 1 (Homo sapiens); test: Inhibition of recombinant human HDAC1 expressed in HEK293T/17 cells using Ac-GAK(Ac)-AMC as substrate preincubated for 10 mins followed by substrate addition and measured after 30 mins by fluorescence-based assay
Measure: pIC50
Please keep in mind that pIC50 is minus log10 of the molar concentration; only the number is needed.

Would you kindly share the measured pIC50 for "O=C(NO)c1ccc(CNC(=O)c2ccc(Cl)c(Cl)c2)cc1" ?
7.47

====

biological target: Histone deacetylase 9 (Homo sapiens, UniProt Q9UKV0); assay: Inhibition of recombinant human HDAC9 expressed in HEK293T/17 cells using Boc-Lys(TFA)-AMC as substrate preincubated for 10 mins followed by substrate addition and measured after 30 mins by fluorescence-based assay
Sequence (Q9UKV0 whole entry): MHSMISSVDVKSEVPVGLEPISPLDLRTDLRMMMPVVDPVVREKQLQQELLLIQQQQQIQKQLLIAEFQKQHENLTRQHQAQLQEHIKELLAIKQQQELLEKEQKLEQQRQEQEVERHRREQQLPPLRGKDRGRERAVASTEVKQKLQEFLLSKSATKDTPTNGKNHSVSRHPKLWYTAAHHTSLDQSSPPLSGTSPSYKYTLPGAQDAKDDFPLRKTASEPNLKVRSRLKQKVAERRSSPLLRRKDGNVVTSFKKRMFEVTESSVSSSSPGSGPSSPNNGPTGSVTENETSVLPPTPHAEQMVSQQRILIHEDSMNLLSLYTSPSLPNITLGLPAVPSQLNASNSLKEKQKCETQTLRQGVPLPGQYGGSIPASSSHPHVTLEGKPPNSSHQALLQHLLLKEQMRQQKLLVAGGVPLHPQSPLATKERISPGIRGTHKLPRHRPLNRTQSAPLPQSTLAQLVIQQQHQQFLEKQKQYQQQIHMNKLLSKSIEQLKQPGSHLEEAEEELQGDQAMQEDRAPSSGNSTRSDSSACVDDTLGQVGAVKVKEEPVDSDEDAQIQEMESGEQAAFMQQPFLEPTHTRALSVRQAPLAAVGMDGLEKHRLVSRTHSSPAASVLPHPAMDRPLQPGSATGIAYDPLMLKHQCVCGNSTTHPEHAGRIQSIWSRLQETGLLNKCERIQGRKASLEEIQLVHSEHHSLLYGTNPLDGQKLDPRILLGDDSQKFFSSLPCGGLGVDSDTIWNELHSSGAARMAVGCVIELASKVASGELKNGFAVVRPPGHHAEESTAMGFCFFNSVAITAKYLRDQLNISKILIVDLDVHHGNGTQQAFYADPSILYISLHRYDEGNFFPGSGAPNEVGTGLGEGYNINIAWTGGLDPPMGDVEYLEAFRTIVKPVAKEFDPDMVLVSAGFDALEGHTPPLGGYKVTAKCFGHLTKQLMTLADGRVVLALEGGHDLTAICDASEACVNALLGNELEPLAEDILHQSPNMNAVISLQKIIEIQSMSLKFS
Measure: pIC50
Please keep in mind that pIC50 is minus log10 of the molar concentration; only the number is needed.

Would you kindly share the measured pIC50 for "O=C(NO)c1ccc(CNC(=O)c2ccc(Cl)c(Cl)c2)cc1" ?
5.51

====

species on record: Homo sapiens; test: Selectivity index, ratio of IC50 for recombinant full length C-terminal His/FLAG tagged human HDAC1 (1 to 482 residues) expressed in baculovirus infected sf9 insect cells using p53 (379 to 382 residues) derived fluorogenic peptide RHKKAc as substrate preincubated for 5 to 10 mins followed by …
Measure: Ratio IC50
Give your answer as a number; write no unit.

>  <Smiles data>
O=C(NCCc1cc(C(=O)NO)no1)c1ccc2ccccc2c1

>  <Ratio IC50>
294

$$$$
>  <Smiles data>
O=C(CCc1cc(C(=O)NO)no1)Nc1nc(-c2ccccc2)cs1

>  <Ratio IC50>
9.9

$$$$
>  <Smiles data>
O=C(NO)c1cc(CCCCN2CCCc3cc(Cl)ccc32)on1

>  <Ratio IC50>
16

$$$$
>  <Smiles data>
CC(C)(C)OC(=O)Nc1ccc(-c2cc(C(=O)NCCc3cc(C(=O)NO)no3)no2)cc1

>  <Ratio IC50>
2820

$$$$
>  <Smiles data>
O=C(NCCc1cc(C(=O)NO)no1)c1cccc(-c2ccccc2)c1

>  <Ratio IC50>
85

$$$$

// next entry
Would you kindly share the measured Ratio IC50 for "CC(C)(C)OC(=O)Nc1ccc(-c2cc(C(=O)NCc3ccc(C(=O)NO)cc3)no2)cc1" ?
1320

====

Molecular target: Protein deacetylase HDAC6 (Homo sapiens)
Sequence (Q9UBN7 whole entry): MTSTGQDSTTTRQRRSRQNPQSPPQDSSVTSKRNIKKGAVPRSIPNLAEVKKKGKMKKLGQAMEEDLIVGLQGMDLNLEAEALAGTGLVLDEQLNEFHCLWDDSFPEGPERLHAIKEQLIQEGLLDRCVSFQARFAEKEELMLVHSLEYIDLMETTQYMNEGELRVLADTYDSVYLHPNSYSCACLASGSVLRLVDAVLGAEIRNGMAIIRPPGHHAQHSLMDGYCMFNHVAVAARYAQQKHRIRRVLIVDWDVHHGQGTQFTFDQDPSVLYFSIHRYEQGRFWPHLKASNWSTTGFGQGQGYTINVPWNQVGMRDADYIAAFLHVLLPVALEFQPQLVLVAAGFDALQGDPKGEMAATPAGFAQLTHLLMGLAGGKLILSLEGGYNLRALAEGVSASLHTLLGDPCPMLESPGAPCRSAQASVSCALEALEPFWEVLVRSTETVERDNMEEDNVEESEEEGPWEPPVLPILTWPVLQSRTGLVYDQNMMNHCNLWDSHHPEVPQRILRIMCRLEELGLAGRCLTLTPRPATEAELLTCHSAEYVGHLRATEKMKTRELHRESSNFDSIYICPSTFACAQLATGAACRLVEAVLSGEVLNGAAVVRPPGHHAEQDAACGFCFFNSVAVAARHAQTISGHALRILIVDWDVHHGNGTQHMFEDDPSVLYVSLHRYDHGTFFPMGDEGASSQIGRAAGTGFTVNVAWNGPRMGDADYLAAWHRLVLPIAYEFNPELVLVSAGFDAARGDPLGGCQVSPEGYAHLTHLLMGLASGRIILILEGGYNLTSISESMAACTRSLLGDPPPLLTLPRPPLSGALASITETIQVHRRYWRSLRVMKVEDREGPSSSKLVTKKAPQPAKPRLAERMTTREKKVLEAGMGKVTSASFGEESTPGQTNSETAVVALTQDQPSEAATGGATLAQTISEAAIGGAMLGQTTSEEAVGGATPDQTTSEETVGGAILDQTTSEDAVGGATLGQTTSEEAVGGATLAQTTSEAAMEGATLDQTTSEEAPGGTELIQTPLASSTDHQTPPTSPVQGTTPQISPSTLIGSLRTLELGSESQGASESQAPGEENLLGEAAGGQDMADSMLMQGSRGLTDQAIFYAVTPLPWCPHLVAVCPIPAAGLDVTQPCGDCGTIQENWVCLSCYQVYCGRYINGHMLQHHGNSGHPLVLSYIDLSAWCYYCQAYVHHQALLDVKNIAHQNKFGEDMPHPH
Experiment: Inhibition of recombinant human HDAC6 expressed in HEK293T/17 cells using Ac-GAK(Ac)-AMC as substrate preincubated for 10 mins followed by substrate addition and measured after 30 mins by fluorescence-based assay
Measure: IC50 (nM)
Report the value in nM with no unit label.

Would you kindly share the measured IC50 for "O=C(NO)c1ccc(CNC(=O)c2ccc(Cl)c(Cl)c2)cc1" ?
2
